# Tested on: M. sympodialis CBS 7222
# method-description: Test for bacteriostatic effect (MIC) in agar medium, M. sympodialis
# Format: cell-based
# applied-conditions: 10^7 cells/ml, DST agar, 37° C., analysed after 1 and 2 days; combinations: % of each diol
Listed here: items and their measured MIC M. sympodialis.
attribute-measured: MIC M. sympodialis (%)

OCCCCCO ... 3
CCO ... 10
CC(O)CCO (centres unmarked) ... 10
CC(O)CO (centres unmarked) ... 10
CC(O)CC(C)(C)O (centres unmarked) ... 3

---

# Test system: Candida albicans H 29
# method-description: Test for bacteriostatic effect (MIC) in agar medium, C. albicans
# Format: cell-based
# applied-conditions: 10^6 cells/ml, DST agar, 37° C., analysed after 1 and 2 days; combinations: % of each diol
# Experimental: Staphylococcus aureus number 515×6352 and Candida albicans H 29 were obtained from the Collection in the Department of Microbiology, Sahigrenska University Hospital, Gothenburg, Sweden. The isolates were maintained on blood agar at 37° C. M. sympodialis CBS 7222 and M. globosa CBS 7966 Test for bacteriostatic effect (MIC=minimal inhitory concentration). […]
attribute-measured: MIC C. albicans 10^6 (%)

CC(O)CCO (centres unmarked) ... 8
OCCCCCO ... 4
CC(O)CC(C)(C)O (centres unmarked) ... 4
CCO ... 8
CC(O)CO (centres unmarked) ... 9
